Let's look at some molecules and their measured IC50.
target_entity: DNA dC->dU-editing enzyme APOBEC-3G (Homo sapiens, UniProt Q9HC16)
Sequence (Q9HC16 whole entry): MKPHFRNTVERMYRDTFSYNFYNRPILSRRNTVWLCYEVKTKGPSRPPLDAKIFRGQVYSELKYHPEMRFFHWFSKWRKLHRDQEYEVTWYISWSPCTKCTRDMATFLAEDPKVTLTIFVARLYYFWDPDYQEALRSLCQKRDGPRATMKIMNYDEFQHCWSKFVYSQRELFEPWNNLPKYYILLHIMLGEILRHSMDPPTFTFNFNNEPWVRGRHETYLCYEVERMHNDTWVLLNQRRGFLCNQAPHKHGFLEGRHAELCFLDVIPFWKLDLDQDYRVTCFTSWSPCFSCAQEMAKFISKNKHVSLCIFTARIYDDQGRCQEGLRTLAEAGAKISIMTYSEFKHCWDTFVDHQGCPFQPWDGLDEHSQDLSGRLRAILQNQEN
assay_notes: Dose Response confirmation of small molecule APOBEC3G DNA Deaminase Inhibitors via a fluorescence-based single-stranded DNA deaminase assay. [Related pubchem assays (depositor defined):AID493012, AID493028]
Assay type: functional
The source made the active and inactive calls. No stated cut-off is given here; in the data, actives have a measured IC50 and inactives only a lower limit.

Some entries whose results are on file:
Cc1cc(Cl)ccc1/N=c1\ssnc1Cl
11.9 µM (active)
C=C(C)C(=O)Nc1cccc(C2=NOC3(C2)C[C@@H](C(N)=O)N(C(=O)CC(c2ccccc2)c2ccccc2)C3)c1 (some centres undefined)
15.3 µM (active)
CCOC(=O)c1ccc(/N=c2\ssnc2Cl)cc1
13.8 µM (active)

For the next question, use this molecule.
query: Recorded IC50 of S=c1[nH]nc(Cc2cccs2)n1-c1ccccc1 , please.
result: 7.51 µM (active)
